Quick reference: %Inh of the listed items.
# System: MEK6;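 further: KINOMEscan kinase panel screen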
# Construct: gene MAP2K6
# condition_info: concentration: 1 μM, replicates: in singlicate; n = 1

compound: Cc1ccc(NC(=O)Nc2ccc(Cl)c(C(F)(F)F)c2)cc1-c1ccc(C(=O)Nc2ccncc2)cc1
%Inh: 0%

compound: COc1cccc(NC(=O)Nc2ccc(C)c(-c3ccc(C(=O)Nc4ccncc4)cc3)c2)c1
%Inh: 0%

compound: CS(=O)(=O)CCNCc1nc(-c2ccc3ncnc(Nc4ccc(OCc5ccccc5)c(Cl)c4)c3c2)cs1.Cl
%Inh: 0%

compound: CCCCc1nn2ncccc2c1-c1ccnc(NC2CC2)n1
%Inh: 10%

compound: CNc1cc(-c2ccc3c(N)n[nH]c3c2)nc(N)n1
%Inh: 14%

compound: Cc1ccc(NC(=O)Nc2ccc(Cl)cc2)cc1-c1ccc(C(=O)Nc2ccncc2)cc1
%Inh: 0%

compound: COc1ccc(CSc2nnc(-c3ccc4ncsc4c3)o2)cc1C(F)(F)F
%Inh: 24%

compound: O=C(Nc1n[nH]c2nc(-c3cccs3)c(Br)cc12)C1CC1
%Inh: 0%

compound: Fc1ccc(-c2nc[nH]c2-c2ccncc2)cc1
%Inh: 0%

compound: CS(=O)(=O)Cc1ccc(Nc2nccc(-c3c(-c4cccc(NC(=O)C5CCCCC5)c4)nn4ncccc34)n2)cc1
%Inh: 0%

compound: COc1cc2ncnc(Nc3cccc(Br)c3)c2cc1OC.Cl
%Inh: 0%

compound: Fc1ccc(-c2nc3n(c2-c2ccncc2)CCS3)cc1
%Inh: 0%

compound: COC(=O)c1cccc(NC(=O)NC2CCN(c3ccnc(Nc4ccc(F)cc4)n3)C2)c1 (centres unmarked)
%Inh: 0%

compound: COc1cccc(C2=C(Nc3cc(Cl)c(O)c(Cl)c3)C(=O)NC2=O)c1
%Inh: 0%

compound: COc1ccc(Nc2nccc(N3CCC(NC(=O)C(C)c4ccc(Cl)cc4)C3)n2)cc1 (centres unmarked)
%Inh: 0%

compound: O=c1cc(N2CCOCC2)nc2n(Cc3ccccc3F)ccn12
%Inh: 0%

compound: Cn1cnc2c(N)ncnc21
%Inh: 0%

compound: FC(F)(F)c1ccccc1-c1cc(-c2c[nH]nc2-c2ccccn2)ccn1
%Inh: 0%

compound: Nc1cccc(-c2ccc3c(N)n[nH]c3c2)n1
%Inh: 18%

compound: Cn1cncc1-c1cc2c(Nc3ccc(OCc4ccccc4)cc3)ncnc2cn1
%Inh: 0%
